tested on: FLT4 (human), P35916 [Q890H]; experiment: radiometric filter-binding kinase assay, Kinase HotSpot; details: compound 0.5 µM; ATP 10 µM
Sequence (P35916 whole entry, looked up, stated change not applied): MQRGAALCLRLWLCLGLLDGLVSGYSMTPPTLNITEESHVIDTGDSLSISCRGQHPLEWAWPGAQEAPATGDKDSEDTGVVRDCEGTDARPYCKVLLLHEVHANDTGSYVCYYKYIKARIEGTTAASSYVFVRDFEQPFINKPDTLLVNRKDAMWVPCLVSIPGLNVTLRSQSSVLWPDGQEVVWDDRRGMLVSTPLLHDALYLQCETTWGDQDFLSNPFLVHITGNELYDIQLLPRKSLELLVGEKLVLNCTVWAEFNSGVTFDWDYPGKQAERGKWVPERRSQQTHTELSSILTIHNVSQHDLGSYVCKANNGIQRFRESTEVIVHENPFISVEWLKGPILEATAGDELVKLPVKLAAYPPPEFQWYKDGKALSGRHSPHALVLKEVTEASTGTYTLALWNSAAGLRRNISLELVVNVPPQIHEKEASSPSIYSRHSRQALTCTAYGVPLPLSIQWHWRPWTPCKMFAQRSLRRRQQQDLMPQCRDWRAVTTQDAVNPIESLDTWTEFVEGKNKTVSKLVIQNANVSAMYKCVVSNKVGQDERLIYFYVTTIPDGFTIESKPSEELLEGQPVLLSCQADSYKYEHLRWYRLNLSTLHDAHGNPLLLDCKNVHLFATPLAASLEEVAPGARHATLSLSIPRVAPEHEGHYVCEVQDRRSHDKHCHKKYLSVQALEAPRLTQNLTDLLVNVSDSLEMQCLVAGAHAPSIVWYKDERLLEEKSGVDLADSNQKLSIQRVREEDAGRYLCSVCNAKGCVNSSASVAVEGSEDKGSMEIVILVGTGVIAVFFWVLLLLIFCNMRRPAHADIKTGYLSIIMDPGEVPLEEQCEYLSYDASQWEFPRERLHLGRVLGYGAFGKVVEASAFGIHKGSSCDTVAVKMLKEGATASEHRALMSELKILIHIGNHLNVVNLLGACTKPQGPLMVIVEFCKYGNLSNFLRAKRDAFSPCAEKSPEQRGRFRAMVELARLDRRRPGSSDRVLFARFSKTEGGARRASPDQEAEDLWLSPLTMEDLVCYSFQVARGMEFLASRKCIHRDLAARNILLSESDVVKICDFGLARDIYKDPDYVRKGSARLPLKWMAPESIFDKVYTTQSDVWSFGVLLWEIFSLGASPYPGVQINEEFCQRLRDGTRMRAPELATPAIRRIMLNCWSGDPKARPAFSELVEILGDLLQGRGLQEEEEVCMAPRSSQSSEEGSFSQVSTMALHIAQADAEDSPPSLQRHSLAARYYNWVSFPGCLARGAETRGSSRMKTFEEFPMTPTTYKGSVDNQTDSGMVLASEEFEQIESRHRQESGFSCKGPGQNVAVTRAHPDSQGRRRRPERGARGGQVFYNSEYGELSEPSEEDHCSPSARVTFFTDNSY
PROPERTY NAME: residual activity (%)
Please reply with the bare figure in % and do not write the unit itself.

Worked cases, residual activity given:
In [3]: df
Out[3]:
                         chemical_structure             target_under_test      property_name  quantity_unit  readout_number
0  O=C1NC(=O)c2c1c1c3ccccc3n3c1c1c2c2ccccc2n1C1CCC3O1  FLT4 (human), P35916 [Q890H]  residual activity              %            4.97
1  COc1cc2ncnc(Nc3ccc(F)c(Cl)c3)c2cc1OCCCN1CCOCC1  FLT4 (human), P35916 [Q890H]  residual activity              %            92.2
2  Nc1ncnc2c1c(-c1ccc(Oc3ccccc3)cc1)cn2C1CCCC1  FLT4 (human), P35916 [Q890H]  residual activity              %            50.8
3  N#Cc1c[nH]c2c[nH]/c(=N\Cc3cccnc3)cc2/c1=N\c1ccc(F)c(Cl)c1  FLT4 (human), P35916 [Q890H]  residual activity              %            96.2
4  N#C/C(=C1/Nc2ccccc2S1)c1ccnc(NCCc2cccnc2)n1  FLT4 (human), P35916 [Q890H]  residual activity              %            86.1

I am curious: what residual activity value has been reported for CCc1nc(-c2ccc(OC)cc2)[nH]c1-c1ccncc1 ?
123

I am curious: what residual activity value has been reported for COc1cc2c(cc1OC)-c1[nH]nc(Nc3cccc(F)c3)c1C2 ?
82.6

I am curious: what residual activity value has been reported for CNc1cc2c(Nc3cccc(Br)c3)ncnc2cn1 ?
97

I am curious: what residual activity value has been reported for Cc1nc2cc3nc(-c4cccs4)cnc3cc2n1C ?
86.2

I am curious: what residual activity value has been reported for Nc1nc(Nc2ccc(S(N)(=O)=O)cc2)nn1C(=O)c1c(F)cccc1F ?
38

* * *

target: MAP2K1 (human) (UniProt Q02750); experiment: radiometric filter-binding kinase assay, Kinase HotSpot; details: compound 0.5 µM; ATP 10 µM
Sequence (Q02750 whole entry, looked up): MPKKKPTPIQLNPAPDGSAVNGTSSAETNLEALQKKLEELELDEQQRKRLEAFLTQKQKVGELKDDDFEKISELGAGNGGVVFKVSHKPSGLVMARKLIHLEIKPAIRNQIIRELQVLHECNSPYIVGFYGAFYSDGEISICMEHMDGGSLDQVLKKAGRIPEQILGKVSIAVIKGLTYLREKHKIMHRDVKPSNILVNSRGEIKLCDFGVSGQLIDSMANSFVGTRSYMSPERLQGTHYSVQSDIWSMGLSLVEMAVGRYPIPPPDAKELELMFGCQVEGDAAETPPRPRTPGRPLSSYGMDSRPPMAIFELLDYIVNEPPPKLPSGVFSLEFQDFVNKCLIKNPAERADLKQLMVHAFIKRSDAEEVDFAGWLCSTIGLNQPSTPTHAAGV
PROPERTY NAME: residual activity (%)
Please reply with the bare figure in % and do not write the unit itself.

Worked cases, residual activity given:
>>> df
                         chemical_structure      property_name  readout_number
0  COc1cc2ncnc(Nc3ccc(Oc4ccccc4)cc3)c2cc1OC  residual activity            85.9
1       CCCCc1c(-c2ccc(OC)cc2)[nH]c2nccnc12  residual activity            88.7
2               O=C1c2ccccc2-c2nc3nnnn3nc21  residual activity            88.7
3  Cc1cccc(-c2nc(C(C)(C)C)[nH]c2-c2ccc3c(c2)OCO3)n1  residual activity            93.3
4      CN(C)c1ccc(/C=C2\C(=O)Nc3ccccc32)cc1  residual activity            97.8
5  O=C(c1cc2cc(O)ccc2[nH]1)c1cc2cc(O)ccc2[nH]1  residual activity             103

I am curious: what residual activity value has been reported for Ic1cccc(CSc2nnc(-c3ccncc3)o2)c1 ?
95.4

I am curious: what residual activity value has been reported for COc1ccc(C(=O)Nc2sc3c(c2C(N)=O)CCCC3)cc1OC ?
99.1

I am curious: what residual activity value has been reported for CS(=O)(=O)CCNCc1ccc(-c2ccc3ncnc(Nc4ccc(OCc5cccc(F)c5)c(Cl)c4)c3c2)o1 ?
105

I am curious: what residual activity value has been reported for CN(C)CCCn1cc(C2=C(c3c[nH]c4ccccc34)C(=O)NC2=O)c2ccccc21 ?
83.6

I am curious: what residual activity value has been reported for CC(C)(C)c1cc(C=C(C#N)C#N)cc(Br)c1O ?
90.8

I am curious: what residual activity value has been reported for CO[C@@H]1[C@H](N(C)C(=O)c2ccccc2)C[C@H]2O[C@]1(C)n1c3ccccc3c3c4c(c5c6ccccc6n2c5c31)C(=O)NC4 ?
109

I am curious: what residual activity value has been reported for Cc1cncc2cccc(S(=O)(=O)N3CCCN(C(=O)CN)C[C@H]3C)c12 ?
94.9

I am curious: what residual activity value has been reported for Cn1c2ccccc2c2c3c(c4c5ccccc5n(CCC#N)c4c21)CNC3=O ?
90.2

I am curious: what residual activity value has been reported for O=C1C(Cl)=C(N2C(=O)CCC2=O)C(=O)c2ccccc21 ?
76.5

I am curious: what residual activity value has been reported for COc1ccc2c(c1)/C(=C/c1cnc[nH]1)C(O)=N2 ?
94.8

* * *

Below is a list of entries, each paired with its recorded residual activity value.
target: UniProt:Q96SB4; assay: radiometric filter-binding kinase assay, Kinase HotSpot; settings: compound 0.5 µM; ATP 10 µM
Sequence (Q96SB4 whole entry, looked up): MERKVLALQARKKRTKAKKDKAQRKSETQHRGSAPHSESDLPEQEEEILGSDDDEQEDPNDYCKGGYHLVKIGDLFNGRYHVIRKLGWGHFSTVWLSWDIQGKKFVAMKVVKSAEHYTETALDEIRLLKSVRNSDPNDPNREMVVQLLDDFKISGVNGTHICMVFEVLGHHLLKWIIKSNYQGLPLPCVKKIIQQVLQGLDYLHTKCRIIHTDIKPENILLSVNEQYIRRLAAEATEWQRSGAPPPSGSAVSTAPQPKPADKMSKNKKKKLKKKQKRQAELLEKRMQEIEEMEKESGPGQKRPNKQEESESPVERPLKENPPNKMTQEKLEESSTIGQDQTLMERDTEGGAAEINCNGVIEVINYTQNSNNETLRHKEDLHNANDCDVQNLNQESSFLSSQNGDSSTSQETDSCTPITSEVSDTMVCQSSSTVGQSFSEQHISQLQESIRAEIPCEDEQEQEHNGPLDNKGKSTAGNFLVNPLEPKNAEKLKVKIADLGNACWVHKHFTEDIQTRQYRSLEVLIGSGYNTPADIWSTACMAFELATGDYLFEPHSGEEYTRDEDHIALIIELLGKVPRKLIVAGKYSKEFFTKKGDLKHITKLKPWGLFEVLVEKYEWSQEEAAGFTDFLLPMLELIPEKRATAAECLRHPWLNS
Please reply with the bare figure in % and do not write the unit itself.

Worked cases, residual activity given:
>>> print(df.to_string())
                         chemical_structure  readout_number
0  N#Cc1c[nH]c2c[nH]/c(=N\Cc3cccnc3)cc2/c1=N\c1ccc(F)c(Cl)c1             102
1      CN(C)c1ccc(/C=C2\C(=O)Nc3ccccc32)cc1            95.4
2  NC(=O)c1cccc(-c2cc(Nc3ccc(OC(F)(F)F)cc3)ncn2)c1              98

I am curious: what residual activity value has been reported for COc1ccc(Cl)cc1NC(=O)Nc1cc(C)nc2ccccc12 ?
82.5

I am curious: what residual activity value has been reported for CO[C@@H]1[C@H](N(C)C(=O)c2ccccc2)C[C@H]2O[C@]1(C)n1c3ccccc3c3c4c(c5c6ccccc6n2c5c31)C(=O)NC4 ?
97.1

I am curious: what residual activity value has been reported for CN(C)CCCn1cc(C2=C(c3c[nH]c4ccccc34)C(=O)NC2=O)c2ccccc21 ?
87

I am curious: what residual activity value has been reported for O=C1c2ccccc2-c2nc3nnnn3nc21 ?
109

I am curious: what residual activity value has been reported for COc1ccc2c(c1)/C(=C/c1cnc[nH]1)C(O)=N2 ?
98

* * *

biological target: MAPK9 (human) (UniProt P45984); test: radiometric filter-binding kinase assay, Kinase HotSpot; settings: compound 0.5 µM; ATP 10 µM
Sequence (P45984 whole entry, looked up): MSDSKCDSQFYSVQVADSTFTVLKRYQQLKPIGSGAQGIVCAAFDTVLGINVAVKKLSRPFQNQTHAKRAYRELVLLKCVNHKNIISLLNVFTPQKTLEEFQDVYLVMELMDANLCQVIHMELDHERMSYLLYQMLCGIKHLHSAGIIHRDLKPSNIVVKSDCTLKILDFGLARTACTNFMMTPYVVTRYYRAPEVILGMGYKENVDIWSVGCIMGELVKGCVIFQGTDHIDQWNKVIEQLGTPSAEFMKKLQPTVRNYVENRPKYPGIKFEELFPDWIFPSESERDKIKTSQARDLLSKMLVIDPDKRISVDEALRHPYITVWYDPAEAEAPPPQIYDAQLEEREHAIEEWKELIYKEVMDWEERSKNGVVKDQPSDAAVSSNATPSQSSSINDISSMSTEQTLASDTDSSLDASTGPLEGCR
PROPERTY NAME: residual activity (%)
Please reply with the bare figure in % and do not write the unit itself.

>>> print(df.to_string())
                         chemical_structure               target_under_test      property_name  readout_number
0  O=C1C(Cl)=C(N2C(=O)CCC2=O)C(=O)c2ccccc21  MAPK9 (human) (UniProt P45984)  residual activity            93.6
1  O=C1Nc2ccc(Br)cc2/C1=C\c1cc2c([nH]1)CCCC2  MAPK9 (human) (UniProt P45984)  residual activity            99.4

I am curious: what residual activity value has been reported for COc1ccc(C(=O)Nc2sc3c(c2C(N)=O)CCCC3)cc1OC ?
118

I am curious: what residual activity value has been reported for N#Cc1c[nH]c2c[nH]/c(=N\Cc3cccnc3)cc2/c1=N\c1ccc(F)c(Cl)c1 ?
100

I am curious: what residual activity value has been reported for Cc1nc(-c2ccccc2)c(-c2ccncc2)o1 ?
98.2

I am curious: what residual activity value has been reported for COc1ccc2c(c1)c(C1=C(c3c[nH]c4ccccc34)C(=O)NC1=O)cn2CCCN(C)C ?
86.1

I am curious: what residual activity value has been reported for CN(C)CCCn1cc(C2=C(c3c[nH]c4ccccc34)C(=O)NC2=O)c2ccccc21 ?
98.7

I am curious: what residual activity value has been reported for C[C@@H]1CCN(C(=O)CC#N)C[C@@H]1N(C)c1ncnc2[nH]ccc12 ?
112

I am curious: what residual activity value has been reported for CN(C)S(=O)(=O)c1ccc2c(c1)/C(=C/c1cc3c([nH]1)CCCC3)C(=O)N2 ?
104

I am curious: what residual activity value has been reported for N#C/C(=C\c1ccc(O)c(O)c1)C(=O)NCc1ccccc1 ?
103

I am curious: what residual activity value has been reported for COc1ccc(S(=O)(=O)N(CCO)c2ccccc2CN(C)C/C=C/c2ccc(Cl)cc2)cc1 ?
85.5

I am curious: what residual activity value has been reported for Ic1cccc(CSc2nnc(-c3ccncc3)o2)c1 ?
108

I am curious: what residual activity value has been reported for Fc1ccc(-c2nc3n(c2-c2ccncc2)CCS3)cc1 ?
90.6

I am curious: what residual activity value has been reported for COc1cc2ncnc(Nc3ccc(OCc4ccccc4)cc3)c2cc1OC ?
106

I am curious: what residual activity value has been reported for Cc1cncc2cccc(S(=O)(=O)N3CCCN(C(=O)CN)C[C@H]3C)c12 ?
106
